Reported residual activity values for the following compounds.
# Study Target: Casein kinase I isoform delta (Homo sapiens) (UniProt P48730)
# Sequence (P48730 whole entry, looked up, canonical isoform): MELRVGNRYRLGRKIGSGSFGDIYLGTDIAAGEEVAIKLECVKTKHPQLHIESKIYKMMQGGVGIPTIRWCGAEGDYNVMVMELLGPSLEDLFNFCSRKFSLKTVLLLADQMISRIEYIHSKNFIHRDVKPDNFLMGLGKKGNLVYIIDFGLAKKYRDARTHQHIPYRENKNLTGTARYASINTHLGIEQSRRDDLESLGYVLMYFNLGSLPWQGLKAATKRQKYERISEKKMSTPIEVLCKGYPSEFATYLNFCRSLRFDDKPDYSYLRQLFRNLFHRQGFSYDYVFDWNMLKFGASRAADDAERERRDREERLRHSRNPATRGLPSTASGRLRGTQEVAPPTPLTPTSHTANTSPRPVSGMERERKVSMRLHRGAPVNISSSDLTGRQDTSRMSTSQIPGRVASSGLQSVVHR
# Condition Context: at 1 µM
# Description: Millipore: Percentage of residual kinase activity of CSNK1D at 1uM relative to control. Control inhibitor: Jnk Inhibitor II at 100.0uM. Buffer: 8 mM MOPS pH 7.0, 0.2 mM EDTA
Report the value in % with no unit label.

Past entries and their recorded results:
COc1ccc2c(c1)c(C1=C(c3c[nH]c4ccccc34)C(=O)NC1=O)cn2CCCN(C)C    79
O=c1c(-c2ccc(F)cc2)c(-c2ccncc2)[nH]n1-c1ccc(Cl)cc1    44
CSc1nc(-c2ccc(F)cc2)c(-c2ccnc(NC(C)c3ccccc3)c2)[nH]1 (stereo unspecified)    35
CC(C)(C)n1nc(Cc2cccc3ccccc23)c2c(N)ncnc21    40

Q: # lookup: residual activity of O=C(c1cc2cc(O)ccc2[nH]1)c1cc2cc(O)ccc2[nH]1
Ans: 74

Q: Can you handle CCCCc1c(-c2ccc(O)cc2)[nH]c2nccnc12 next?
Ans: 81

* * *

# Study Target: Serine/threonine-protein kinase ULK3 (Homo sapiens) (UniProt Q6PHR2)
# Sequence (Q6PHR2 whole entry): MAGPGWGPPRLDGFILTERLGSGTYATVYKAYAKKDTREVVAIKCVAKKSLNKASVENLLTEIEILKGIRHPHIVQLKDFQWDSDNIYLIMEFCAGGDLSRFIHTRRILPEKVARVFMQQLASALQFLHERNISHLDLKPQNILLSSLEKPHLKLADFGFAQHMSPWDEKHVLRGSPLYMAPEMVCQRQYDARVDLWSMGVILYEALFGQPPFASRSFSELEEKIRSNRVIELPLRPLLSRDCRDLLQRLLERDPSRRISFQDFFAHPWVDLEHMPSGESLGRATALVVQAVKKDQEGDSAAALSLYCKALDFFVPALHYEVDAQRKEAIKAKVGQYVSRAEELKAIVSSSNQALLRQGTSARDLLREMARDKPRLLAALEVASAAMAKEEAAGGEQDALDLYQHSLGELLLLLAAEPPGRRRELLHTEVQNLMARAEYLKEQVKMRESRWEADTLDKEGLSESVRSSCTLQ
# Condition Context: at 1 µM
Reported residual activity values for the following compounds.
Report the value in % with no unit label.

CC(C)(C)c1nc2c3ccc(F)cc3c3c(=O)[nH]ccc3c2[nH]1    56

Q: # lookup: residual activity of CC(C)c1nn(-c2c(Cl)cccc2Cl)c2nc(Cc3ccc(OCCO)cc3)[nH]c(=O)c12
Ans: 84

Q: Can you handle O=C1Nc2ccc(Cl)cc2/C1=C/c1cc(Cl)c(O)c(Cl)c1 next?
Ans: 89

Q: Can you handle O=C(Nc1nc2ccccc2n1CCN1CCOCC1)c1cccc([N+](=O)[O-])c1 next?
Ans: 103

Q: Can you handle O=c1cc(N2CCOCC2)oc2c1ccc1ccccc12 next?
Ans: 106

Q: Can you handle COc1ccc2c(c1)c(C1=C(c3c[nH]c4ccccc34)C(=O)NC1=O)cn2CCCN(C)C next?
Ans: 100

* * *

# Study Target: Glycogen synthase kinase-3 alpha (Homo sapiens) (UniProt P49840)
# Sequence (P49840 2-483 limits assumed): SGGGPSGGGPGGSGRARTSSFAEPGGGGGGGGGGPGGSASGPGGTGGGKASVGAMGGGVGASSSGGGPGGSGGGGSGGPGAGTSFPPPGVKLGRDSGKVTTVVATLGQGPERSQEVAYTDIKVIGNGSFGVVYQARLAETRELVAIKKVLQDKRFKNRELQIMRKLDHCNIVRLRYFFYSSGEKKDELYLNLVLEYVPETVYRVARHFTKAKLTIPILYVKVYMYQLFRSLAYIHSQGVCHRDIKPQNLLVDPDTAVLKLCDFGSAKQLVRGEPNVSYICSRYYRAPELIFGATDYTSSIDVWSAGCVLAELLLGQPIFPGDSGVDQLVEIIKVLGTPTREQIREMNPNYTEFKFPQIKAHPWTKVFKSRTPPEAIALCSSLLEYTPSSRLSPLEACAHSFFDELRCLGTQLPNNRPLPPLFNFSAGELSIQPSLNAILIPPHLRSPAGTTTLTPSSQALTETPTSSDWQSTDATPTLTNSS
# Condition Context: at 10 µM
Reported residual activity values for the following compounds.
Report the value in % with no unit label.

Past entries and their recorded results:
O=C(NC(NC(=S)Nc1ccc(F)c([N+](=O)[O-])c1)C(Cl)(Cl)Cl)C(c1ccccc1)c1ccccc1 (stereo unspecified)    89
Nc1ncnc2[nH]nc(Nc3ccc(F)cc3)c12    90
COc1cc2c(cc1OC)-c1n[nH]c(Nc3cccc(F)c3)c1C2    108
COc1cc2nccc(Oc3ccc(NC(=S)NC(=O)c4ccccc4C)cc3)c2cc1OC    147
O=C(O)/C=C/c1cc(Br)c(Br)c(Br)c1Br    51
CCOC(=O)c1c(C)[nH]c(/C=C2\C(=O)Nc3ccccc32)c1C    129
NC(=O)Nc1sc(-c2ccc(F)cc2)cc1C(N)=O    29
CN(C)S(=O)(=O)c1ccc2c(c1)/C(=C/c1cc3c([nH]1)CCCC3)C(=O)N2    94
COc1cc2nccc(Oc3ccc(NC(=O)Nc4cc(C)on4)c(Cl)c3)c2cc1OC    123
O=C1Nc2ccc(Cl)cc2/C1=C/c1cc(Cl)c(O)c(Cl)c1    30

Now examine the next entry.
Q: # lookup: residual activity of CCCC(=O)Oc1ccc2[nH]c(C(=O)c3cc4ccccc4[nH]3)cc2c1
Ans: 125

* * *

Reported residual activity values for the following compounds.
# Study Target: Casein kinase I isoform gamma-1 (Homo sapiens) (UniProt Q9HCP0)
# Sequence (Q9HCP0 whole entry, looked up, canonical isoform): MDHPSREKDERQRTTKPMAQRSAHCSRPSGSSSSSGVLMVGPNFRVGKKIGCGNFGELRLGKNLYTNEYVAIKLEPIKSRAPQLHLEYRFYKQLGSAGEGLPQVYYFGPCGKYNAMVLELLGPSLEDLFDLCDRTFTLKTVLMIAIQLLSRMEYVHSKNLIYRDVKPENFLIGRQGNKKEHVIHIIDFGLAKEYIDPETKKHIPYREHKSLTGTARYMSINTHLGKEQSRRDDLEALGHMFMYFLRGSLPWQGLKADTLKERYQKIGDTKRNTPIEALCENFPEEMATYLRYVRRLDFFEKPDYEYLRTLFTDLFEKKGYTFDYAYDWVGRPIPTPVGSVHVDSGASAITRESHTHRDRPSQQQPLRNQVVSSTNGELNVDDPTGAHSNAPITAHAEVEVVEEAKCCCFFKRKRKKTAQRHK
# Condition Context: at 1 µM
# Description: Millipore: Percentage of residual kinase activity of CSNK1G1 at 1uM relative to control. Control inhibitor: Phosphoric acid* at 0.3uM. Buffer: 8 mM MOPS pH 7.0, 0.2 mM EDTA
Value and unit, in that order.

Past entries and their recorded results:
COc1cc2nccc(Oc3ccc(NC(=S)NC(=O)c4ccccc4C)cc3)c2cc1OC    91%
CCCC(=O)Oc1ccc2[nH]c(C(=O)c3cc4ccccc4[nH]3)cc2c1    90%
N#C/C(=C1/Nc2ccccc2S1)c1ccnc(NCCc2cccnc2)n1    77%

Q: Observed residual activity on Casein kinase I isoform gamma-1 (Homo sapiens) (UniProt Q9HCP0) for Nc1ncnc2c1cnn2-c1ccccc1 , please.
Ans: 98%

Q: Can you handle O=C(O)/C=C/c1cc(Br)c(Br)c(Br)c1Br next?
Ans: 103%

Q: Can you handle COc1cc2ncnc(Nc3cccc(Cl)c3)c2cc1OC next?
Ans: 100%
